Molecular target: T1, recombinant human activated Factor VII (FVIIa) (human, UniProt P08709 61-212; P08709 213-466, ten glutamate residues of the Gla domain may be gamma-carboxylated)
T1 construct: chains tethered by a disulfide bond; also called Factor VIIa; rFVIIa
T1 sequence 1: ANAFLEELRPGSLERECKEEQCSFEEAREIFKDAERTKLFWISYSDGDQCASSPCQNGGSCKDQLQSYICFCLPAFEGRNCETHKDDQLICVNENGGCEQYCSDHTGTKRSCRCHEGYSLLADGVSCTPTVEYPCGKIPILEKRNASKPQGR
T1 sequence 2: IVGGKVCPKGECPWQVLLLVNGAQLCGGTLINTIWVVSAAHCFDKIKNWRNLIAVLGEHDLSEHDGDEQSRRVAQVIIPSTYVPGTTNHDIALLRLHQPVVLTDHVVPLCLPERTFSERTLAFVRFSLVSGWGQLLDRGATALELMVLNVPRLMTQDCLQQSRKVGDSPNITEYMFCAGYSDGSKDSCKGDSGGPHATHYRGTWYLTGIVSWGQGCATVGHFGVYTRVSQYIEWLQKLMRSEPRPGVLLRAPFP
Assay: BLI (Fortebio)
Metric name: pKd
Value format note: pKd is -log10 of concentration (mol/L); just state the number.

Below, 8 binders whose answers are already recorded.
QUERY: # pKd lookup, item VH SEQ ID NO 586 / VL SEQ ID NO 310 (antibody, IgG4, V domains shown, humanized 11F2; IgG4 S228P/kappa) VH: QVQLQESGPGLVKPSDTLSLTCAVSGYSISSDSAWSWIRQPPGKGLEWIGYIQYSGSTNYNPSLKSRVTMSVDTSKNQFSLKLSSVTALDTAVYYCARSVNYYGNSFAVGYWGQGTLVTVSS VL: EIVLTQSPATLSLSPGERATLSCRASQGISDYLAWYQQKPGQAPRLLIKYASQPATGIPARFSGSGSGTDFTLTISSLEPEDFAVYYCQNGHSFPLTFGQGTKLEIK
RESULT: 5.82

QUERY: May I ask what pKd has been recorded for VH SEQ ID NO 602 / VL SEQ ID NO 318 (antibody, IgG4, V domains shown, humanized 11F2; IgG4 S228P/kappa) VH: QVQLQESGPGLVKPSQTLSLTCTVSGGSISSDSAWSWIRQPPGKGLEWIGYIQYSGSTNYNPSLKSRVTISVDTSKNQFSLKLSSVTAADTAVYYCARSVNYYGNSFAVGYWGQGTLVTVSS VL: EIVLTQSPATLSLSPGERATLSCRASQGISDYLHWYQQKPGEAPRLLIKYTSQPATGIPARFSGSGSGTDFTLTISSLEPEDFAVYYCQNGHSFPLTFGQGTKLEIK ?
RESULT: 8.05

QUERY: pKd lookup needed for VH SEQ ID NO 570 / VL SEQ ID NO 342 (antibody, IgG4, V domains shown, humanized 11F2; IgG4 S228P/kappa) VH: QVQLQESGPGLVKPSDTLSLTCAVSGYSISSDSAWSWIRQPPGKGLEWIGYIQYSGSTNYNPSLKSRVTMSRDTSKNQFSLKLSSVTAADTAVYYCARSVNYYGNSFAVGPWGQGTLVTVSS VL: EIVLTQSPATLSLSPGERATLSCRASQGISDYLHWYQQKPGQAPRLLIKYTSQPATGIPARFSGSGSGRDFTLTISSLEPEDFAVYYCQNGHSFPLTFGAGTKLELK , thanks.
RESULT: 8.82

QUERY: Query (binder): VH SEQ ID NO 514 / VL SEQ ID NO 342 (antibody, IgG4, V domains shown, humanized 11F2; IgG4 S228P/kappa) VH: QVQLQESGPGLVEPSDTLSLTCAVSGYSITSDSAWSWIRQPPGKKLEWIGYIQYSGSTNYNPSLKSRVTMSRDTSKNQFSLKLSSVTALDTAVYYCARSVNYYGNSFAVGYWGQGTLVTVSS VL: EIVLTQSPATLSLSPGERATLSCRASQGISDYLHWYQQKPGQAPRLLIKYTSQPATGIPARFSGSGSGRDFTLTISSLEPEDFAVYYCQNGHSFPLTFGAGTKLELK ; field requested: pKd
RESULT: 8.89

QUERY: Which value of pKd has been reported for VH SEQ ID NO 530 / VL SEQ ID NO 390 (antibody, IgG4, V domains shown, humanized 11F2; IgG4 S228P/kappa) VH: QVQLQESGPGLVEPSQTLSLTCTVSGYSISSDSAWSWIRQPPGKGLEWIGYIQYSGSTNYNPSLKSRVTISRDTSKNQFSLKLSSVTAADTAVYYCARSVNYYGNSFAVGYWGQGTLVTVSS VL: EIVLTQSPATLSLSPGERATLSCRASQGVSDYLAWYQQKPGEAPRLLIKYASQPATGIPARFSGSGSGTDFTLTISSLEPEDFAVYYCQNGHSFPLTFGQGTKLEIK in the records?
RESULT: 8.39

QUERY: Requested field: pKd. Item: VH SEQ ID NO 586 / VL SEQ ID NO 430 (antibody, IgG4, V domains shown, humanized 11F2; IgG4 S228P/kappa) VH: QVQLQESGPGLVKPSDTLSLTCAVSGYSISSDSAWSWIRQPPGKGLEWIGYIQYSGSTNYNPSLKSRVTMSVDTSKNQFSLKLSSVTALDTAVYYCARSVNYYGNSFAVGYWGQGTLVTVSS VL: EIVLTQSPATLSLSPGERATLSCRASQGVSDYLAWYQQKPGQAPRLLIKYASQPATGIPARFSGSGSGTDFTLTISSLEPEDFGVYYCQNGHSFPLTFGQGTKLEIK
RESULT: 7.89

QUERY: Item VH SEQ ID NO 626 / VL SEQ ID NO 350 (antibody, IgG4, V domains shown, humanized 11F2; IgG4 S228P/kappa) VH: QVQLQESGPGLVKPSQTLSLTCTVSGYSISSDSAWSWIRQPPGKGLEWIGYIQYSGSTNYNPSLKSRVTISRDTSKNQFSLKLSSVTAADTAVYYCARSVNYYGNSFAVGPWGQGTLVTVSS VL: EIVLTQSPATLSLSPGERATLSCRASQGISDYLHWYQQKPGQAPRLLIKYTSQPATGIPARFSGSGSGTDFTLTISSLEPEDFAVYYCQNGHSFPLTFGAGTKLELK has what recorded pKd?
RESULT: 9.19

QUERY: Fill in: pKd of VH SEQ ID NO 650 / VL SEQ ID NO 334 (antibody, IgG4, V domains shown, humanized 11F2; IgG4 S228P/kappa) VH: QVQLQESGPGLVKPSQTLSLTCTVSGYSISSDSAWSWIRQPPGKKLEWIGYIQYSGSTNYNPSLKSRVTISRDTSKNQFSLKLSSVTAADTAVYYCARSVNYYGNSFAVGPWGQGTLVTVSS VL: EIVLTQSPATLSLSPGERATLSCRASQGISDYLHWYQQKPGQAPRLLIKYASQPATGIPARFSGSGSGTDFTLTISSLEPEDFAVYYCQNGHSFPLTFGQGTKLEIK is ___
RESULT: 8.82

Further cases:
QUERY: Sample VH SEQ ID NO 618 / VL SEQ ID NO 430 (antibody, IgG4, V domains shown, humanized 11F2; IgG4 S228P/kappa) VH: QVQLQESGPGLVKPSQTLSLTCTVSGYSISSDSAWSWIRQFPGKGLEWIGYIQYSGSTNYNPSLKSRVTISRDTSKNQFSLKLSSVTAADTAVYYCARSVNYYGNSFAVGPWGQGTLVTVSS VL: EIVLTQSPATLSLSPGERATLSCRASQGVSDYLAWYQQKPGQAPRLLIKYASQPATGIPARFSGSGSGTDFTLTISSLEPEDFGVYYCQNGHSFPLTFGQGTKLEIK — what was its pKd?
RESULT: 6.96

QUERY: Any idea what pKd was measured for VH SEQ ID NO 626 / VL SEQ ID NO 382 (antibody, IgG4, V domains shown, humanized 11F2; IgG4 S228P/kappa) VH: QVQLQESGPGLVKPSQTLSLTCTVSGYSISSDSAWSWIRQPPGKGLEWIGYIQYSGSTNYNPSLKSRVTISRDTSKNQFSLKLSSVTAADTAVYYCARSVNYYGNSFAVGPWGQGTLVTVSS VL: EIVLTQSPATLSLSPGERATLSCRASQGLSDYLHWYQQKPGEAPRLLIKYASQPATGIPARFSGSGSGTDFTLTISSLEPEDFAVYYCQNGHSFPLTFGQGTKLEIK ?
RESULT: 8.96
